# targetOfAssay: DRB1*0901 (Homo sapiens, UniProt P01903+P01911, A100R/A103E/D57H/D86V/F55Y/F60I/F76Y/I96F/K127E/L162R/M171V/P40D/Q125H/Q99R/R33Q/R42F/S133A/S66N/T210M/V115G/W38K/Y107V/Y59G/Y89S)
# assayText: biochemical
# Format: binding
The following compounds are shown together with reported pIC50 values.
pIC50 is defined as minus the log10 of a concentration measured in mol/L.

| compound | reportedValue |
| --- | --- |
| CSCC[C@H](NC(=O)[C@@H](NC(=O)[C@H](CCC(N)=O)NC(=O)[C@H](Cc1ccccc1)NC(=O)[C@H](CC(N)=O)NC(=O)[C@H](CCCCN)NC(=O)[C@@H]1CCCN1C(=O)[C@@H](N)CC(N)=O)[C@@H](C)O)C(=O)N1CCC[C@H]1C(=O)NCC(=O)N[C@H](C(=O)N[C@@H](Cc1ccccc1)C(=O)N[C@@H](CCC(N)=O)C(=O)N[C@H](C(=O)N[C@H](C(=O)O)[C@@H](C)O)[C@@H](C)O)[C@@H](C)O [NS3 105-119] | 6.39 |
| CC[C@H](C)[C@H](NC(=O)[C@H](C)NC(=O)[C@H](C)NC(=O)[C@H](C)NC(=O)[C@@H](N)CCC(=O)O)C(=O)N[C@@H](Cc1ccccc1)C(=O)N[C@@H](CCSC)C(=O)N[C@H](C(=O)N[C@@H](C)C(=O)N[C@H](C(=O)N1CCC[C@H]1C(=O)N1CCC[C@H]1C(=O)NCC(=O)N[C@H](C(=O)N[C@@H](C)C(=O)O)[C@@H](C)O)[C@@H](C)O)[C@@H](C)O [NS3 309-323] | 6.89 |

The compound listed as CSCC[C@H](NC(=O)CNC(=O)[C@H](CCCCN)NC(=O)[C@H](CC(C)C)NC(=O)[C@H](CCC(=O)O)NC(=O)[C@H](CC(C)C)NC(=O)[C@H](CCCCN)NC(=O)[C@H](CC(=O)O)NC(=O)[C@H](CCSC)NC(=O)[C@H](CCCCN)NC(=O)[C@H](CC(C)C)NC(=O)[C@H](CCCNC(=N)N)NC(=O)[C@H](CS)NC(=O)[C@H](CCCCN)NC(=O)[C@@H](N)CC(C)C)C(=O)O [Envelope 281-295] shows pIC50 equal to 5.15

The compound listed as CC(C)C[C@H](NC(=O)[C@H](CCC(=O)O)NC(=O)[C@H](CCCCN)NC(=O)[C@@H](N)CCCNC(=N)N)C(=O)N[C@@H](CC(C)C)C(=O)N[C@H](C(=O)N[C@H](C(=O)N[C@@H](Cc1ccccc1)C(=O)N[C@@H](CCCCN)C(=O)N[C@@H](CC(N)=O)C(=O)N[C@@H](C)C(=O)N[C@@H](Cc1c[nH]cn1)C(=O)N[C@@H](C)C(=O)N[C@@H](CCCCN)C(=O)N[C@@H](CCCCN)C(=O)O)[C@@H](C)O)C(C)C [Envelope 231-245] shows pIC50 equal to 7.32
